Source: PubChem BioAssay (EPA / NIEHS)

- Read-out: Basic fibroblast growth factor (bFGF), FGF2 (gene 2247)
- experimentNotes: BSK_MyoF_bFGF: BioMAP Diversity Plus: MyoF Assay for Basic fibroblast growth factor (bFGF) Biomarker Activity (AID 2284246)
- protocolConditions: primary human lung fibroblasts
The source made the active and inactive calls. The calls were made as follows: active = hit-call score of the fitted dose curve at least 0.9, where 1 is the maximum; inactive = score below 0.9.
Respond with a class label; see active, inactive

Please review the following examples before continuing.
OCCCCC(F)(F)C(F)(F)C(F)(F)C(F)(F)F
inactive
NCC(F)(F)C(F)(F)C(F)(F)C(F)(F)C(F)(F)C(F)(F)F
inactive
NC(=O)C(F)(F)C(F)(F)C(F)(F)C(F)(F)C(N)=O
inactive
NC(=O)C(F)(F)C(F)(F)C(F)(F)C(F)(F)C(F)(F)C(F)(F)C(F)(F)F
inactive
FC(F)(F)C(F)(F)C(F)(F)CC1CO1 (configuration not stated)
inactive
O=C(O)C(F)(F)C(F)(F)C(F)(F)OC(F)(C(F)(F)F)C(F)(F)F
inactive

Per the records of this test, what outcome belongs to C[Si](Cl)(Cl)CCC(F)(F)C(F)(F)C(F)(F)C(F)(F)C(F)(F)C(F)(F)F ?
inactive

Try this compound too: O=C(O)C(F)(F)OC(F)(F)C(F)(F)OC(F)(F)C(F)(F)OC(F)(F)F
inactive

Try this compound too: CN(C(=O)C(F)(F)C(F)(F)C(F)(F)F)[Si](C)(C)C
inactive

Try this compound too: COC(F)(C(F)F)C(F)(F)F (configuration not stated)
inactive

Try this compound too: O=C(c1ccccc1)c1ccc(O)cc1O
inactive

Try this compound too: O=C(Cl)C(F)(F)C(F)(F)C(F)(F)C(F)(F)C(F)(F)C(F)(F)F
inactive

Try this compound too: NC(=O)C(F)(F)C(F)(F)C(F)(F)F
inactive

Try this compound too: Brc1nc2ccccc2s1
inactive

Try this compound too: OCC(O)CC(F)(F)C(F)(F)C(F)(F)C(F)(F)F (configuration not stated)
inactive

Try this compound too: NC(O)(C(F)(F)F)C(F)(F)F
inactive

Try this compound too: C=CC(=O)OCCC(F)(F)C(F)(F)C(F)(F)C(F)(F)F
inactive

Try this compound too: O=S(=O)(Cl)C(F)(F)C(F)(F)C(F)(F)C(F)(F)C(F)(F)C(F)(F)C(F)(F)C(F)(F)F
inactive

* * *

- experimentNotes: BSK_BE3C_SRB: Viability Assessment in the BioMAP Diversity Plus: BE3C Assay (AID 2283028);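 also: measured 24 h after chemical dosing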
- protocolConditions: primary human bronchial epithelial cells
Activity calls are given as the source filed them. The calls were made as follows: active = hit-call score of the fitted dose curve at least 0.9, where 1 is the maximum; inactive = score below 0.9.
Respond with a class label; see y for active, n for inactive

O=C=Nc1cccc2c(N=C=O)cccc12
n
CCOC(=O)CC(=O)C(F)(F)C(F)(F)F
n
NCC(F)(F)C(F)(F)C(F)(F)C(F)(F)C(F)(F)C(F)(F)F
n
COC(F)(C(F)F)C(F)(F)F (configuration not stated)
n

Per the records of this test, what outcome belongs to CC1=CC2C3C=CC(C3)C2C1C (configuration not stated) ?
n

Try this molecule too: O=C(c1ccccc1)c1ccc(O)cc1O
n

Try this molecule too: CCOC(C=C(C)CCC=C(C)C)OCC
n

Try this molecule too: C[C@]12CC[C@H]3C(=CCc4cc(O)ccc43)[C@@H]1CCC2=O
n

Try this molecule too: CC(C)(C)c1cc(CCC(=O)NCCCCCCNC(=O)CCc2cc(C(C)(C)C)c(O)c(C(C)(C)C)c2)cc(C(C)(C)C)c1O
n
